# Reactivity (OD 492 nm) values compiled below
TARGET_ENTITY: T1, HCV bt-141-161 (Peptide 2, HCVc 141-161) (Hepatitis C virus (numbering per HCV-1), biotin (carboxy-terminal per; N-terminal per))
T1 peptide: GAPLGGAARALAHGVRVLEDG
TEST_SUMMARY: EIA, captured mAb + biotin peptide
VALUE_KIND: Reactivity (OD 492 nm) (OD units)

• HCV 208A-557 (antibody, V domains shown) VH: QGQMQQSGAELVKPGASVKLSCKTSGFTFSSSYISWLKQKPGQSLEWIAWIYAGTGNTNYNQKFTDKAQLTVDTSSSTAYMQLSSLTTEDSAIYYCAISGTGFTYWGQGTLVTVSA VL: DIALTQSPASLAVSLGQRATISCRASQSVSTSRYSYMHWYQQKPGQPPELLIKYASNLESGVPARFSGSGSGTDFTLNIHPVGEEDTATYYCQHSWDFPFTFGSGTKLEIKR = 2.41
• HCV 208A-983 (antibody, V domains shown) VH: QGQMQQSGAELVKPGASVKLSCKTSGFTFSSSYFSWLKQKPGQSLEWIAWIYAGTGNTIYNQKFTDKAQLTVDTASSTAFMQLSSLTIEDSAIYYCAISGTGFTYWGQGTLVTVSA VL: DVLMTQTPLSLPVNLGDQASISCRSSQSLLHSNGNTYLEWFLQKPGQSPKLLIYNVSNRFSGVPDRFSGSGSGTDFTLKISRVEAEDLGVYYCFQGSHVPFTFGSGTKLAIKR = 0.4
• HCV 208A-422 (antibody, V domains shown) VH: DVQLQESGPGLVNPSQSLSLTCSVTGYSITSGYYWIWIQQSPGNKLEWMGYIKYDGGNNYSPSLKNRISIARDTSKNQCFLKLNSVTIEDTATYYCTRGSDSFDYWGQGTTLTVSS VL: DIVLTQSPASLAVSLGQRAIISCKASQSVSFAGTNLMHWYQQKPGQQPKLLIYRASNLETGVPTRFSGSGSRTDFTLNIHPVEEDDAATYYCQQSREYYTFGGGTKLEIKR = 0.84
• HCV 208B-1096 (antibody, V domains shown) VH: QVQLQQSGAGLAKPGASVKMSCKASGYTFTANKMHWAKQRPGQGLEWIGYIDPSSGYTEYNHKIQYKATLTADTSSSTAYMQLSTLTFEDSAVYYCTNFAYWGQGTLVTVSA VL: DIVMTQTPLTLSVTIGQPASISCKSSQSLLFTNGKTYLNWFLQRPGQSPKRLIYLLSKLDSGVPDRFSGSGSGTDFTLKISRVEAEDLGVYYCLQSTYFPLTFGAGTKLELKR = 0.13
• HCV 208B-793 (antibody, V domains shown) VH: EVKLVESGGGLVQPGGSLKLSCAASGFTFSSYAMSWVRQTPERRLEWVTYISNGGGSTYYSDTVKGRFTFSRDNAKNTLYLQMSSLKSEDTAMYYCARHGLGRTGFASWGQGTLVTVSA VL: DIVMTQSHKFMSTSVGDRVSITCKASQDVGTAVAWYQQKPGQSPKLLIYWASTRHTGVPDRFTGSGSGTDFTLTISNVQSEDLADYFCQQYSNYLTFGAGTKLEVKR = 0.72
